B1: CPEB3 Ribozyme (parent)
chain: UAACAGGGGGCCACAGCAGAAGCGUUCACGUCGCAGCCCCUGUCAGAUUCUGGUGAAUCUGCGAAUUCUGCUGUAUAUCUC

variants of: B1; test: self-cleavage, relative activity (ratio to wild type); higher = more cleavage; in vitro, sequencing
assayMetric: self-cleavage

1. C38A U43A    0.34
2. A3U G8A    0.2
3. A13U U54C    1.1
4. U48A U58C    0.29
5. C44U C81A    0.11
6. A5C U31A    0.75
7. U54G U69C    0.37
